Literature roundup of Aurora kinase A (Homo sapiens, UniProt O14965) data, read-out IC50.
recorded endpoint: IC50 (nM)

CN(C)c1ccc(-c2nc3c(N4CCN(CC(=O)Nc5cccc(Cl)c5)CC4)c(Cl)cnc3[nH]2)cc1: 75

1 = CC(C)(C)c1ccc(C(=O)Nc2n[nH]c3c2CN(C(=O)Cc2ccccc2)C3)cc1
2 = O=C(CN1CCN(c2c(Br)cnc3[nH]cnc23)CC1)Nc1nccs1
For the pair 1 and 2 , which member has the lower IC50 number? Pick one and reply with its label.
2

----------
Biological target: Aurora kinase A (Homo sapiens)
Sequence (O14965 whole entry): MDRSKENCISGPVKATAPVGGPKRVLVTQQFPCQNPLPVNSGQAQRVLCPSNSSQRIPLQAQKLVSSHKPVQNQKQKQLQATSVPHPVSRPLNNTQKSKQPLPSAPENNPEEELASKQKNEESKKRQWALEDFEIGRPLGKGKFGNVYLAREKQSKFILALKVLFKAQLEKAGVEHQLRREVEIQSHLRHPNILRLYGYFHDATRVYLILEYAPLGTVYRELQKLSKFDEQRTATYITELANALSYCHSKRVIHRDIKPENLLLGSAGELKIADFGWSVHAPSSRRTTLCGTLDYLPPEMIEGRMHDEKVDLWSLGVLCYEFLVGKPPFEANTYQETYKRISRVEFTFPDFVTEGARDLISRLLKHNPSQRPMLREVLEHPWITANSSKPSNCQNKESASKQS
pIC50: −log10 of the molar value.
Literature roundup of Aurora kinase A (Homo sapiens) data, read-out pIC50.
recorded endpoint: pIC50

A = COc1cc2ncnc(Nc3ccc(-c4nc5ccccc5s4)c(F)c3)c2cc1OCCCN1CCN(C)CC1
B = CN1CCN(c2ccc(C(=O)Nc3cc(-c4ccc(NC(=O)Nc5ccccn5)cc4)n[nH]3)cc2)CC1
For the pair A and B , which member has the lower pIC50 number? Pick one and reply with its label.
B
(B: 6.21, A: 6.70)

1 = CN1CCN(C(=O)c2cc(Nc3ncc4cc(C(=O)O)n(C5CCCC5)c4n3)cn2C)CC1
2 = O=C(NCc1ccc(-c2cc(NC(=O)c3ccc(OCCN4CCOCC4)cc3)[nH]n2)cc1)Nc1ccccc1
For the pair 1 and 2 , which member has the lower pIC50 number? Pick one and reply with its label.
2
(2: 6.12, 1: 6.46)

1 = Cn1cc(-c2cnc(N)c(Oc3ccc(C(=O)Nc4ccccc4)cc3)n2)cn1
2 = COc1cc2c(N(C)c3ccc(-c4nc5ccccc5s4)c(OC)c3)ncnc2cc1OCCCN1CCN(C)CC1
Of 1 and 2 , which one carries the higher reported pIC50? Pick one and reply with its label.
1
